Measured values drawn from patent US12077503B2 for this set.

# Tested on: blackgrass (Alopecurus myosuroides)
# testName: Test A postemergence
# Assay type: in vivo
# assayContext: Alopecurus myosuroides, post-emergence, 240 h, 125 g ai/ha, postemergence; visual injury after approximately 10 d; 0 to 100 scale (0 no effect, 100 complete control); read-out: Plant response rating, Blackgrass
# Excerpt: […]
I'd appreciate it if you could supply pest or weed control at 125 g/ha values for the items below.
One number for each entry, in %.

O=C1NC[C@H](c2ccc3c(c2)CCO3)[C@H]1C(=O)Nc1ccccc1F ... 0
Cc1cc([C@H]2CN(C)C(=O)[C@@H]2C(=O)Nc2ccccc2F)cc(C)c1C ... 0
Cc1ccc(NC(=O)[C@H]2C(=O)N(C)C[C@@H]2c2cc(F)cc(F)c2)c(F)c1 ... 0
O=C1NC[C@H](c2ccc(C3CC3)cc2)[C@H]1C(=O)Nc1ccccc1F ... 30
Cc1cc(F)cc([C@H]2CN(C)C(=O)[C@@H]2C(=O)Nc2cccc(F)c2C#N)c1 ... 20

Batch lookup, pest or weed control at 125 g/ha per entry.
1. Cc1ccc(NC(=O)[C@H]2C(=O)N(C)C[C@@H]2c2cc(F)cc(F)c2)c(F)c1F
2. COc1ccc([C@H]2CNC(=O)[C@@H]2C(=O)Nc2ccccc2S(C)(=O)=O)cc1F
3. Cc1ccc([C@H]2CN(C)C(=O)[C@@H]2C(=O)Nc2cccc(F)c2F)c(F)c1
4. O=C1NC[C@H](c2csc3ccccc23)[C@H]1C(=O)Nc1cccc(F)c1F

1. 70
2. 0
3. 50
4. 20
